- assay_target: CHOK1 cells engineered to overexpress human CCR2 (Homo sapiens, UniProt P41597)
- Construct: expressed in transfected cells; host or cells: CHOK1 cells
- test_method_notes: Antibody dependent cellular cytotoxicity (ADCC) reporter assay
- Format: cell-based
- run_conditions: with anti-cotinine antibody (SEQ ID NO: 11/12, human IgG1 Fc S239D/I332E); Jurkat FcγRIIIa NFAT-luciferase reporter cells; 12-18 hours; average if more than one run; read-out: ADCC Reporter Assay pEC50 (converted)
attribute_measured: EC50 (nM)

| structure | assay_target | test_result |
| --- | --- | --- |
| CC(=O)N[C@@H]1C[C@H](NC(C)(C)C)CC[C@@H]1N1CC[C@H](Nc2nc(C3CCN(C(=O)[C@H]4CC[C@H](NC(=O)CCCO[C@H]5CC[C@H](OCCNC(=O)[C@H]6CC(=O)N(C)[C@@H]6c6cccnc6)CC5)CC4)CC3)nc3ccc(C(F)(F)F)cc23)C1=O | CHOK1 cells engineered to overexpress human CCR2 (Homo sapiens, UniProt P41597) | 0.631 |
| CC(=O)N[C@@H]1C[C@H](NC(C)(C)C)CC[C@@H]1N1CC[C@H](Nc2nc([C@H]3CC[C@H](NC(=O)[C@H]4CC[C@H](NC(=O)CCCO[C@H]5CC[C@H](OCCNC(=O)[C@H]6CC(=O)N(C)[C@@H]6c6cccnc6)CC5)CC4)CC3)nc3ccc(C(F)(F)F)cc23)C1=O | CHOK1 cells engineered to overexpress human CCR2 (Homo sapiens, UniProt P41597) | 0.158 |
| CC(=O)N[C@@H]1C[C@H](NC(C)(C)C)CC[C@@H]1N1CC[C@H](Nc2nc(OC3CCN(C(=O)[C@H]4CC[C@H](NC(=O)CCCO[C@H]5CC[C@H](OCCNC(=O)[C@H]6CC(=O)N(C)[C@@H]6c6cccnc6)CC5)CC4)CC3)nc3ccc(C(F)(F)F)cc23)C1=O | CHOK1 cells engineered to overexpress human CCR2 (Homo sapiens, UniProt P41597) | 79.4 |
| CC(=O)N[C@@H]1C[C@H](NC(C)(C)C)CC[C@@H]1N1CC[C@H](Nc2nc(CCNC(=O)[C@H]3CC[C@H](NC(=O)CCCO[C@H]4CC[C@H](OCCNC(=O)[C@H]5CC(=O)N(C)[C@@H]5c5cccnc5)CC4)CC3)nc3ccc(C(F)(F)F)cc23)C1=O | CHOK1 cells engineered to overexpress human CCR2 (Homo sapiens, UniProt P41597) | 0.251 |
| CC(=O)N[C@@H]1C[C@H](N(C)C(C)C)CC[C@@H]1N1CC[C@H](Nc2nc(CCCNC(=O)[C@H]3CC[C@H](NC(=O)CCCO[C@H]4CC[C@H](OCCNC(=O)[C@H]5CC(=O)N(C)[C@@H]5c5cccnc5)CC4)CC3)nc3ccc(C(F)(F)F)cc23)C1=O | CHOK1 cells engineered to overexpress human CCR2 (Homo sapiens, UniProt P41597) | 0.158 |
| CC(=O)N[C@@H]1C[C@H](NC(C)(C)C)CC[C@@H]1N1CC[C@H](Nc2nc(CCCCNC(=O)[C@H]3CC[C@H](NC(=O)CCCO[C@H]4CC[C@H](OCCNC(=O)[C@H]5CC(=O)N(C)[C@@H]5c5cccnc5)CC4)CC3)nc3ccc(C(F)(F)F)cc23)C1=O | CHOK1 cells engineered to overexpress human CCR2 (Homo sapiens, UniProt P41597) | 0.158 |
| CC(=O)N[C@@H]1C[C@H](NC(C)(C)C)CC[C@@H]1N1CC[C@H](Nc2nc(COCCNC(=O)[C@H]3CC[C@H](NC(=O)CCCO[C@H]4CC[C@H](OCCNC(=O)[C@H]5CC(=O)N(C)[C@@H]5c5cccnc5)CC4)CC3)nc3ccc(C(F)(F)F)cc23)C1=O | CHOK1 cells engineered to overexpress human CCR2 (Homo sapiens, UniProt P41597) | 0.501 |

Values were extracted from patent US20250057958A1.
